Experiment: Clearance in Sprague-Dawley rat measured at 2 mg/kg, iv for 0.083 to 24 hrs by LC-MS/MS analysis
Assay type: ADME, organism-based
Conditions: in vivo, time 0.083-24 hrs
Consider the following molecules and their measured clearance readings.

{"columns": ["CHEMICAL STRING", "UNITS SYMBOL", "clearance"],
 "data": [
  ["C=CC(=O)N1CCC(c2cc3c(Oc4ccc(NC(=O)NC5CC5)c(Cl)c4)ccnc3cc2OC)CC1", "mL/min/kg", 58],
  ["C=CC(=O)N1CCC(c2cc3c(Oc4ccc(NC(=O)NC5CC5)c(Cl)c4)ccnc3cc2OCC)CC1", "mL/min/kg", 66]
]}

* * *

Biological target: Fibroblast growth factor receptor 4 (Homo sapiens, UniProt P22455)
Sequence (P22455 22-802 limits assumed): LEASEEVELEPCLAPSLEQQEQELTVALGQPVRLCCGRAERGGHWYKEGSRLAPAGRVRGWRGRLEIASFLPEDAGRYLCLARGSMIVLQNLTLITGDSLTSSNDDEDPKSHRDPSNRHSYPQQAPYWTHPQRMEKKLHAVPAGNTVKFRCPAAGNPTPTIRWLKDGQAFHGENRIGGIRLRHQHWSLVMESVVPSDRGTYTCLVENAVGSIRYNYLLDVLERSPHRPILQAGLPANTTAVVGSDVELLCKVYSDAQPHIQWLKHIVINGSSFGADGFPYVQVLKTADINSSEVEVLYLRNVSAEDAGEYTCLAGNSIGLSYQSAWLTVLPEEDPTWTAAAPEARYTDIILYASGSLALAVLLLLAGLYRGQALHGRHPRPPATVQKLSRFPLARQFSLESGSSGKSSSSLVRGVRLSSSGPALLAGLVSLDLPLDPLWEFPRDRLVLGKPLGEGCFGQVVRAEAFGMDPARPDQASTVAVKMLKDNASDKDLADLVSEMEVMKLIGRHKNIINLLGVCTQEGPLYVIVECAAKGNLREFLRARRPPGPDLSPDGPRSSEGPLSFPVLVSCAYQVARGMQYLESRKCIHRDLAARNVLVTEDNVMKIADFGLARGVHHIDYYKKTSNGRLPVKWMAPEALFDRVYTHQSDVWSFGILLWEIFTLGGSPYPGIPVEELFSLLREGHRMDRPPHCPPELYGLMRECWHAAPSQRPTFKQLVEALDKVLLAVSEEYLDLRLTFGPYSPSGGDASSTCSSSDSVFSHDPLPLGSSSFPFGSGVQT
Assay: Inhibition of FGFR4 (unknown origin) at 100 nM incubated for 10 mins followed by substrate addition measured after 60 mins by ADP-Glo luminescence assay relative to control
Conditions: time 70.0 min

{"columns": ["CHEMICAL STRING", "inhibition (%)"],
 "data": [
  ["C=CC(=O)N1CCC(c2cc3c(Nc4ccc(OCc5ccccn5)c(Cl)c4)ccnc3cc2OC)CC1", 17.1],
  ["C=CC(=O)N1CCC(c2cc3c(Oc4ccc(NC(=O)NC5CC5)c(Cl)c4)c(C#N)cnc3cc2OC)CC1", 15],
  ["C=CC(=O)N1CCC(c2cc3nccc(Oc4ccc(NC(=O)NC5CC5)c(Cl)c4)c3cc2OC)CC1", 25.9],
  ["C=CC(=O)N1CCC(c2cc3c(Nc4ccc(F)c(Cl)c4)ccnc3cc2OC)CC1", 15.3],
  ["C=CC(=O)N1CCC(c2cc3c(Oc4ccc(NC(=O)Nc5cc(C)on5)c(Cl)c4)ccnc3cc2OC)CC1", 36.5],
  ["C=CC(=O)N1CCC(c2cc3c(Oc4ccc(NC(=O)NC5CC5)c(OCC)c4)ccnc3cc2OC)CC1", 10.7],
  ["C=CC(=O)N1CCC(c2cc3c(Oc4ccc5c(C(=O)NC)c(C)oc5c4)ccnc3cc2OC)CC1", 40.7],
  ["C=CC(=O)N1CCC(c2cc3c(Oc4ccc(NC(=O)C5(C(=O)Nc6ccc(F)cc6)CC5)cc4)ccnc3cc2OC)CC1", -2.1],
  ["C=CC(=O)N1CCC(c2cc3c(Oc4ccc(NC(=O)Cc5ccccc5)cc4F)ccnc3cc2OC)CC1", 1.1]
]}

* * *

Experiment: Half life in Sprague-Dawley rat measured at 100 mg/kg, po for 0.083 to 24 hrs by LC-MS/MS analysis
Type: ADME, organism-based
Conditions: in vivo, time 0.083-24 hrs

{"columns": ["CHEMICAL STRING", "half-life [h]"],
 "data": [
  ["C=CC(=O)N1CCC(c2cc3c(Oc4ccc(NC(=O)NC5CC5)c(Cl)c4)ccnc3cc2OC)CC1", 1.36]
]}

* * *

Test: AUC(0 to t) in Sprague-Dawley rat measured at 30 mg/kg, po for 0.083 to 24 hrs by LC-MS/MS analysis
Assay type: ADME, organism-based
Parameters: time 0.083-24 hrs, dose 30 mg/kg, route po
Conditions: in vivo
REPORTED ENDPOINT: AUC(0-t) (ng·h/mL)

{"columns": ["CHEMICAL STRING", "REPORTED ENDPOINT", "REPORTED"],
 "data": [
  ["C=CC(=O)N1CCC(c2cc3c(Oc4ccc(NC(=O)NC5CC5)c(Cl)c4)ccnc3cc2OC)CC1", "AUC(0-t)", 7920]
]}
